Molecular target: cathepsin B (Rattus norvegicus, UniProt P00787)
Sequence (P00787 129-333 limits assumed): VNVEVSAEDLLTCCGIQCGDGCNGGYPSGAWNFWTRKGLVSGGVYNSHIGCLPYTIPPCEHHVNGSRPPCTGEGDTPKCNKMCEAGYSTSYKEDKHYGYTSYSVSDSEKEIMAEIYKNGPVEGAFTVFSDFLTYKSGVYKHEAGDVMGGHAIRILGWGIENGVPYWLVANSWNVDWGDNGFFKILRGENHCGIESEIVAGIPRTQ
Sequence (P00787 80-126 limits assumed): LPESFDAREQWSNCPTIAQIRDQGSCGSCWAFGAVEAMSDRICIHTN
pIC50: −log10 of the molar value. Counter-ions that a name gives are not always drawn.

- compound: "NCCCC[C@H](NC(=O)[C@H]1O[C@@H]1C(=O)N[C@@H](Cc1ccccc1)C(N)=O)C(=O)Nc1ccccc1 [Example 55, hydrochloride]"
  inequality.operator: "="
  pIC50: 4.36
- compound: "NCCCC[C@H](NC(=O)[C@H]1O[C@@H]1C(=O)N[C@@H](Cc1ccccc1)C(=O)NCCc1ccccc1)C(=O)Nc1ccccc1 [Example 35, hydrochloride]"
  inequality.operator: "="
  pIC50: 4.96
- compound: "NCCCC[C@H](NC(=O)[C@H]1O[C@@H]1C(=O)N[C@H](Cc1ccccc1)C(=O)NCCc1ccccc1)C(=O)Nc1cccc2ccccc12 [Example 53, hydrochloride]"
  inequality.operator: "="
  pIC50: 4.52
- compound: "NCCCCCCCCNC(=O)[C@H](Cc1ccccc1)NC(=O)[C@H]1O[C@@H]1C(=O)O [Preparation Example 61, reference compound]"
  inequality.operator: "="
  pIC50: 7.64
- compound: "NCCCC[C@H](NC(=O)[C@H]1O[C@@H]1C(=O)N[C@@H](Cc1ccccc1)C(=O)NCCc1ccccc1)C(=O)Nc1ccc(Cl)c2ccccc12 [Example 49, hydrochloride]"
  inequality.operator: "="
  pIC50: 5.70
- compound: "NCCCC[C@H](NC(=O)[C@H]1O[C@@H]1C(=O)N[C@@H](Cc1ccccc1)C(=O)NC1CCCCC1)C(=O)Nc1ccccc1 [Example 69, hydrochloride]"
  inequality.operator: "<"
  pIC50: 5.00
